test: Excitation and fluorescence wavelengths by fluorescence spectrometer FL4500; format: physicochemical; details: aqueous solution: 10 mg/mL DMSO solution diluted to 1/500 with purified water (Examples 1 to 94); in nm (unit assumed)

# COMPOUND, λem (fluorescence wavelength)
data = [
    ("C=CCN1C(=O)/C(=c2\\s/c(=C/c3ccc4c(c3)C3CCCC3N4c3ccc(OC)cc3)c(=O)n2CC(=O)O)SC1=S (stereo not drawn)", 680),
    ("COc1ccc(N2c3ccc(/C=c4/s/c(=C5/SC(=O)N(Cc6ccccc6)C5=O)n(CC(=O)O)c4=O)cc3C3CCCC32)cc1 (stereo not drawn)", 712),
    ("COc1ccc2cc(N3c4ccc(/C=C5\\C(=O)N(c6ccc(C(=O)O)cc6)N=C5C)cc4C4CCCC43)ccc2c1 (stereo not drawn)", 649),
]

====

assay: Excitation and fluorescence wavelengths by fluorescence spectrometer FL4500; format: physicochemical; conditions: aqueous solution: 10 mg/mL DMSO solution diluted to 1/500 with purified water (Examples 1 to 94); in nm (unit assumed)
Could you label it met if measured λex (excitation wavelength) is 500 or higher, and not met otherwise?

# COMPOUND, CLASS ASSIGNMENT
measured = [
    ("CC1(C)CCN2CCC(C)(C)c3c2c1cc1cc(-c2nc4ccccc4s2)c(=O)oc31", "not met"),
    ("O=C(O)CCN1C(=O)/C(=C\\c2ccc3c(c2)C2CCCC2N3c2ccccc2)SC1=S (stereo not shown)", "met"),
    ("CCOC(=O)Cn1c(=Cc2sc3ccccc3[n+]2C)sc(=Cc2ccc3c(c2)C2CCCC2N3c2ccc(C=C(c3ccccc3)c3ccccc3)cc2)c1=O.[Br-] (stereo not shown)", "met"),
    ("CCN1C(=O)/C(=c2\\s/c(=C/c3ccc(N(c4ccccc4)c4ccc5c(c4)C(C)(C)c4ccccc4-5)cc3)c(=O)n2CC(=O)O)SC1=S", "met"),
    ("CCC(/C=C1\\Sc2c(ccc3ccccc23)N1CC)=C\\c1sc2c3ccccc3ccc2[n+]1CC.[I-]", "not met"),
    ("CCN(CC)c1ccc2cc(-c3nc4ccc(C)cc4o3)c(=O)oc2c1", "not met"),
    ("O=C(O)C1=NN(c2ccccc2)C(=O)/C1=C\\c1ccc2c(c1)C1CCCC1N2c1ccc(Cc2ccccc2)cc1 (stereo not shown)", "not met"),
]

====

test: Excitation and fluorescence wavelengths by fluorescence spectrometer FL4500; assay type: physicochemical; settings: aqueous solution: 10 mg/mL DMSO solution diluted to 1/500 with purified water (Examples 1 to 94); in nm (unit assumed)
As shown below, each of these molecules has a reported λex (excitation wavelength) value.
EXPERIMENTAL READOUT: λex (excitation wavelength)

# MOLECULE, EXPERIMENTAL READOUT, RESULT VALUE
records = [
    ("COc1ccc(N2c3ccc(/C=C/C4=[N+](CCC(=O)O)c5ccc6ccccc6c5C4(C)C)cc3C3CCCC32)cc1.[I-] (stereo not drawn) [Compound 75]", "λex (excitation wavelength)", 619),
    ("C=CCN1C(=O)/C(=C2\\S/C(=C/c3ccc4c(c3)C3CCCC3N4c3ccccc3)CN2CC(=O)O)SC1=S (stereo not drawn) [Compound 98]", "λex (excitation wavelength)", 510),
    ("CCCCN1C(=O)/C(=c2\\s/c(=C/c3ccc4c(c3)C3CCCC3N4c3ccc(OC)cc3)c(=O)n2CC(=O)OCC)SC1=S (stereo not drawn) [Compound 68]", "λex (excitation wavelength)", 450),
    ("Cn1c(=O)cc2c3c(c(NC4CCCCC4)ccc31)C(=O)c1ccccc1-2 [Compound 1]", "λex (excitation wavelength)", 599),
    ("CCCCCCCCN1C(=O)S/C(=c2/s/c(=C/c3ccc4c(c3)C3CCCC3N4c3ccccc3)c(=O)n2CC(=O)OCC)C1=O (stereo not drawn) [Compound 59]", "λex (excitation wavelength)", 581),
    ("COc1ccc(N2c3ccc(/C=C/C4=[N+](C)c5ccccc5C4(C)C)cc3C3CCCC32)cc1.[Br-] (stereo not drawn) [Compound 74]", "λex (excitation wavelength)", 614),
    ("O=C(O)CN1C(=O)/C(=C/c2ccc3c(c2)[C@@H]2CCC[C@@H]2N3c2ccc(C=C(c3ccccc3)c3ccccc3)cc2)SC1=S [Compound 35]", "λex (excitation wavelength)", 535),
    ("COc1ccc(N2c3ccc(/C=c4/s/c(=C5/SC(=O)N(Cc6ccccc6)C5=O)n(CC(=O)O)c4=O)cc3C3CCCC32)cc1 (stereo not drawn) [Compound 53]", "λex (excitation wavelength)", 568),
    ("CCCCCC(CC)Nc1ccc2c3c(cc(=O)n2C)-c2ccccc2C(=O)c13 (stereo not drawn) [Compound 2]", "λex (excitation wavelength)", 486),
    ("CCN(CC)c1ccc2cc3c(oc2c1)c(C#N)c(=O)n1c2ccccc2nc31 [Compound 6]", "λex (excitation wavelength)", 555),
    ("O=C(O)CN1C(=O)/C(=C2C=C/C(=C\\c3ccc4c(c3)C3CCCC3N4c3ccccc3)C\\2)SC1=S (stereo not drawn) [Compound 106]", "λex (excitation wavelength)", 510),
    ("COc1ccc(N2c3ccc(/C=C4/SC(=S)N(CCC(=O)O)C4=O)cc3C3CCCC32)cc1 (stereo not drawn) [Compound 44]", "λex (excitation wavelength)", 564),
    ("CCOC(=O)CN1C(=O)/C(=C\\c2ccc3c(c2)C2CCCC2N3c2ccccc2)SC1=S (stereo not drawn) [Compound 52]", "λex (excitation wavelength)", 580),
    ("CSc1ccc(N2c3ccc(/C=C4/SC(=S)N(CC(=O)O)C4=O)cc3C3CCCC32)cc1 (stereo not drawn) [Compound 66]", "λex (excitation wavelength)", 527),
    ("CCN(CC)c1ccc2cc(-c3nc4ccccc4[nH]3)c(=O)oc2c1 [Compound 9]", "λex (excitation wavelength)", 464),
]

====

system: intraocular tissue (retinal tissue incl. photoreceptor cell layer, vitreous body) of Zebrafish 7-day-old embryo; test: Staining of intraocular tissue of Zebrafish fry by exposure to staining liquid, ocular tissue section observed by confocal microscope; format: in vivo; details: Zebrafish 7 dpf fry, 1 μg/mL, 1 hour exposure, fixed ocular section

# COMPOUND, Staining ability
data = [
    ("Cc1cc(C)cc(Nc2ccc3c4c(cc(=O)n3C)-c3ccccc3C(=O)c24)c1", "∘"),
    ("O=C(O)CN1C(=O)/C(=C\\c2ccc3c(c2)[C@@H]2CCC[C@@H]2N3c2ccccc2)SC1=S", "+++"),
    ("CCN1C(=O)S/C(=c2/s/c(=C/c3ccc4c(c3)C3CCCC3N4c3ccccc3)c(=O)n2CC(=O)O)C1=O (centres unmarked)", "++"),
    ("COc1ccc(N2c3ccc(/C=C/C4=[N+](CCC(=O)O)c5ccc6ccccc6c5C4(C)C)cc3C3CCCC32)cc1.[I-] (centres unmarked)", "++"),
    ("CCOC(=O)c1cc(/C=C/C=C/c2sc3ccccc3[n+]2CC(=O)O)c2cccccc1-2.[Br-]", "++"),
]

====

test system: intraocular tissue (retinal tissue incl. photoreceptor cell layer, vitreous body) of Zebrafish 7-day-old embryo; assay: Staining of intraocular tissue of Zebrafish fry by exposure to staining liquid, ocular tissue section observed by confocal microscope; assay type: in vivo; conditions: Zebrafish 7 dpf fry, 1 μg/mL, 1 hour exposure, fixed ocular section
EXPERIMENTAL READOUT: Staining ability

# COMPOUND, RESULT VALUE
data = [
    ("COc1ccc(N2c3ccc(/C=C4\\Oc5ccc(I)cc5C4=O)cc3C3CCCC32)cc1 (stereo not drawn)", "∘"),
    ("COc1ccc(N2c3ccc(/C=C/c4sc5ccccc5[n+]4CC(=O)O)cc3C3CCCC32)cc1.[Br-] (stereo not drawn)", "++"),
    ("CCCCN1C(=O)/C(=c2\\s/c(=C/c3ccc4c(c3)C3CCCC3N4c3ccccc3)c(=O)n2CC(=O)OCC)SC1=S (stereo not drawn)", "++"),
    ("Cc1ccc(Nc2ccc3c4c(cc(=O)n3C)-c3ccccc3C(=O)c24)c(C)c1", "∘"),
    ("C=CCN1C(=O)/C(=C2\\S/C(=C/c3ccc4c(c3)C3CCCC3N4c3ccccc3)CN2CC(=O)O)SC1=S (stereo not drawn)", "∘"),
    ("CCN1C(=O)/C(=c2\\s/c(=C/c3ccc4c(c3)C3CCCC3N4c3ccc(SC)cc3)c(=O)n2CC(=O)O)SC1=S (stereo not drawn)", "+++"),
]

====

assay: Excitation and fluorescence wavelengths by fluorescence spectrometer FL4500; assay type: physicochemical; settings: aqueous solution: 10 mg/mL DMSO solution diluted to 1/500 with purified water (Examples 1 to 94); in nm (unit assumed)
Lab note: compare λex (excitation wavelength) with 500, writing true (1) if less and false (0) if equal or more.

# COMPOUND, CLASS ASSIGNMENT
measured = [
    ("CCN1C(=O)/C(=c2/s/c(=C/c3ccc4c(c3)C3CCCC3N4c3ccc(C=C(c4ccccc4)c4ccccc4)cc3)c(=O)n2CC(=O)O)SC1=S (stereo not shown) [Compound 80]", "false (0)"),
    ("CCn1c(=C2SC(=S)N(CC(=O)O)C2=O)sc(=Cc2ccc3c(c2)C2CCCC2N3c2ccccc2)c1=O (stereo not shown) [Compound 102]", "false (0)"),
    ("Cn1c(=O)cc2c3c(c(NCc4ccccc4)ccc31)C(=O)c1ccccc1-2 [Compound 3]", "true (1)"),
    ("CCN(CC)c1ccc2cc(-c3nc4cc(Cl)ccc4o3)c(=O)oc2c1 [Compound 11]", "true (1)"),
    ("CCCCCN1/C(=C/C=C/c2oc3ccccc3[n+]2CCCCC)Oc2ccccc21.[I-] [Compound 29]", "true (1)"),
    ("COc1ccc(N2c3ccc(/C=C/c4sc5ccccc5[n+]4CCC(=O)O)cc3C3CCCC32)cc1 (stereo not shown) [Compound 77]", "false (0)"),
    ("CCN1S/C(=c2\\s/c(=C/c3ccc4c(c3)[C@@H]3CCC[C@@H]3N4Cc3ccccc3)c(=O)n2CC(=O)O)SC1=S [Compound 39]", "false (0)"),
]
